Values compiled from ChEMBL document CHEMBL1961873.

- Target of assay: Ephrin type-B receptor 4 (Homo sapiens);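 note: each value is a mean percent inhibition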
- Sequence (whole entry): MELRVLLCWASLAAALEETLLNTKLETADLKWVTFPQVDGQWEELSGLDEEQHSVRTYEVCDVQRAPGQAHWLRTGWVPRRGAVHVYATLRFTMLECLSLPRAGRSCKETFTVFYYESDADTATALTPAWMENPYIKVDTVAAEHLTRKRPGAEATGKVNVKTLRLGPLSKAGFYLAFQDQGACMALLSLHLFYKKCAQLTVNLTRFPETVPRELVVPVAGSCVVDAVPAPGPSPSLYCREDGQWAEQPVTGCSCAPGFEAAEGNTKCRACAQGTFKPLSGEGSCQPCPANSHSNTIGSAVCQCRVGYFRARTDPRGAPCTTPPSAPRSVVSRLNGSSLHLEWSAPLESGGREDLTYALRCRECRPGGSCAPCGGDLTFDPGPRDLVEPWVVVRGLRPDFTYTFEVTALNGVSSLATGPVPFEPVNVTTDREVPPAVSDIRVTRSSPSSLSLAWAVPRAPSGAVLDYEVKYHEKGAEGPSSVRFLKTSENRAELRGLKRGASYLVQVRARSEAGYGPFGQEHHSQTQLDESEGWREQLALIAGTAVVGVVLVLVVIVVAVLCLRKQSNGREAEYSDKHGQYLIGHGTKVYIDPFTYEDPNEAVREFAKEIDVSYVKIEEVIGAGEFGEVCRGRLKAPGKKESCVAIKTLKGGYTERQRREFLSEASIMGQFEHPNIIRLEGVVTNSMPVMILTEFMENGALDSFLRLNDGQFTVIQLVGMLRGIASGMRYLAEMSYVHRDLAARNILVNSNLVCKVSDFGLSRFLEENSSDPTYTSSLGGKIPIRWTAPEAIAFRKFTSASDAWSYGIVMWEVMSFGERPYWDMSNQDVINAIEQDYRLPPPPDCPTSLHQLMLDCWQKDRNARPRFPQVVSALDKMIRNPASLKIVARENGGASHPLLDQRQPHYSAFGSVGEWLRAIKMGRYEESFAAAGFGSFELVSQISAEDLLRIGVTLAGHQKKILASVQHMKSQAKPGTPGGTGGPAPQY
- Run parameters: at 0.1 µM
Quantity measured: inhibition (%)
Give just the number in %; leave the unit off.

q: Recorded inhibition of Cc1cc(-c2ccccn2)cc(C)c1/C=C/c1cncc(-c2nn[nH]n2)c1 , please.
a: 1.86

q: Recorded inhibition of COC(=O)Nc1nc2cc(Oc3ccc(NC(=O)Nc4cccc(Br)c4)cc3)ccc2[nH]1 , please.
a: 9.97

q: Recorded inhibition of NC(=O)c1sc(-n2cnc3ccccc32)cc1OCc1ccccc1Br , please.
a: 1.58

q: Recorded inhibition of Cc1ccc2c(c1)/C(=N/Nc1ccc(S(N)(=O)=O)cc1)C(=O)N2 , please.
a: 0.65

q: Recorded inhibition of Nc1nccc(-c2c(-c3ccc(F)cc3)nn3cc(C(F)(F)F)ccc23)n1 , please.
a: 0.18

* * *

- Target of assay: Tyrosine-protein kinase Fyn (Homo sapiens) (UniProt P06241)
- Sequence (P06241 2-537 limits assumed): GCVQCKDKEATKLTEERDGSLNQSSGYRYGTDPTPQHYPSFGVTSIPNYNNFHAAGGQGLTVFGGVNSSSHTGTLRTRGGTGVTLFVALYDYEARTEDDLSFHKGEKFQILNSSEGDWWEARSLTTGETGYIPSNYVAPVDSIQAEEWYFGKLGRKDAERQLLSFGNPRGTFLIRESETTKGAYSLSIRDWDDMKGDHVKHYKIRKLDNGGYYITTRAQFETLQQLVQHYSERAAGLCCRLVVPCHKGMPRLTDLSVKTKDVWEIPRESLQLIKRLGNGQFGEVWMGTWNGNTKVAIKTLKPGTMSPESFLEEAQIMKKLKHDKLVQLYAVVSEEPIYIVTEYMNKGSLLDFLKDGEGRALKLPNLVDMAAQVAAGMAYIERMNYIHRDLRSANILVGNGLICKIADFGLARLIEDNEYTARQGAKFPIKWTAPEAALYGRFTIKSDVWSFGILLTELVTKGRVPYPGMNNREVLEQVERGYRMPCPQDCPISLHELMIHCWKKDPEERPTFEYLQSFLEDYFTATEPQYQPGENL
- Run parameters: at 1 µM
- Description: GSK_PKIS: FYN mean inhibition at 1 uM [Nanosyn]
Quantity measured: inhibition (%)
Give just the number in %; leave the unit off.

q: Recorded inhibition of OCc1ccc(-c2nc(-c3ccccn3)c(-c3ccc4c(c3)OCO4)[nH]2)cc1 , please.
a: 5.01

q: Recorded inhibition of Cc1ccc(C(=O)NC2CC2)cc1-c1ccc2[nH]ncc2c1 , please.
a: 0.93

q: Recorded inhibition of CCS(=O)(=O)c1ccc(OC)c(Nc2ncc(-c3cccc(OC)c3)o2)c1 , please.
a: 76.5

q: Recorded inhibition of C[C@@H](Oc1cc(-n2cnc3ccc(OCC4CCN(C)CC4)cc32)sc1C(N)=O)c1ccccc1C(F)(F)F , please.
a: 12.6

q: Recorded inhibition of COC(=O)c1ccc2c(c1)C(=Cc1cc(Br)c(O)c(Br)c1)C(=O)N2 , please.
a: 22.5

q: Recorded inhibition of NS(=O)(=O)c1cccc(-c2cc3ccncc3cc2OCc2ccccc2)c1 , please.
a: 4.87

q: Recorded inhibition of CCOc1nccc2c1nc(-c1nonc1N)n2CC , please.
a: 3.27

q: Recorded inhibition of COc1cc(/C=N/Nc2ncnc3c2cnn3C(C)C)ccc1O , please.
a: 40.2

q: Recorded inhibition of Nc1nccc(-c2c(-c3ccc(F)cc3)ncn2CCCN2CCOCC2)n1 , please.
a: 4.47

q: Recorded inhibition of COC(=O)Nc1nc2cc(Oc3ccc(NC(=O)Nc4cccc(Br)c4)cc3)ccc2[nH]1 , please.
a: 9.52
